Sourced from patent US10112941B2

Items are presented alongside their recorded pIC50.
SYSTEM: BRD4 (Homo sapiens, UniProt O60885)
ASSAY EXPLANATION: Time Resolved Fluorescence Resonance Energy Transfer (TR-FRET) binding assay, BRD4
CONDITIONS: one of the FRET assays described; read-out: FRET BRD4 IC50
pIC50: −log10 of the molar value.

{"COMPOUND": "Cc1nnn(C)c1-c1cnc2c3c(F)cc(C(C)(C)O)cc3n(C(c3c(F)cc(F)cc3F)C3CCOCC3)c2c1 (single isomer, unassigned) [Example 104]", "pIC50": "> 8.30"}
{"COMPOUND": "Cc1noc(C)c1-c1cnc2c3ccc(C(C)(C)O)cc3n(C(c3cccc(F)c3F)C3CCOCC3)c2c1 (single isomer, unassigned) [Example 145]", "pIC50": "> 8.30"}
{"COMPOUND": "Cc1nnn(C)c1-c1cnc2c3ccc(C(C)(C)O)cc3n(C(c3ncccc3F)C3CCOCC3)c2c1 (single isomer, unassigned) [Example 293]", "pIC50": "> 8.30"}
